# Organism: Rattus norvegicus
# Assay explanation: Open TG-GATES - Regimen: Daily Repeat
# Type: toxicity, organism-based, Sprague-Dawley
# Set-up: regimen Daily Repeat, gender Male, age 6 weeks
# Reported conditions: in vivo, po, 0 mg/kg, […], tissue Blood, route gavage, dose level Control, time 14 day
Reported metric: Fbg (mg/dL)
Give bare numbers, in mg/dL.

# Compound, Readout units, Fbg
data = [
    ("C[C@H]1O[C@H](O[C@H]2[C@H](O)[C@@H](O)[C@@H](O[C@H]3[C@H](O)[C@@H](O)C(O)O[C@@H]3CO)O[C@@H]2CO)[C@H](O)[C@@H](O)[C@@H]1N[C@H]1C=C(CO)[C@@H](O)[C@H](O)[C@H]1O (some centres undefined) [ACARBOSE]", "mg/dL", 287.8),
    ("C=C(C)[C@H]1Cc2c(ccc3c2O[C@@H]2COc4cc(OC)c(OC)cc4[C@@H]2C3=O)O1 [ROTENONE]", "mg/dL", 241.8),
    ("C[C@H]1C(=O)O[C@@H]2CCN3CC=C(COC(=O)[C@](C)(O)[C@]1(C)O)[C@H]23 [MONOCROTALINE]", "mg/dL", 323.2),
]

Kindly review the next compound as well.
Q: Please give the measured Fbg for this compound: CCOC(=O)C(C)(C)Oc1ccc(Cl)cc1 [CLOFIBRATE]
Result: 227.2

====

# Organism: Rattus norvegicus
# Assay explanation: Open TG-GATES - Regimen: Daily Repeat
# Assay type: toxicity, organism-based, Sprague-Dawley
# Set-up: regimen Daily Repeat, gender Male, age 6 weeks
# Reported conditions: in vivo, po, 0 mg/kg, […], tissue Liver, route gavage, dose level Control, time 14 day
Reported metric: LIVER (g)
Numbers only, in g.

Here are 4 compounds together with their reported answers.
# Compound, Endpoint result
records = [
    ("C=C(C)[C@H]1Cc2c(ccc3c2O[C@@H]2COc4cc(OC)c(OC)cc4[C@@H]2C3=O)O1 [ROTENONE]", 14.2),
    ("Cc1cccc(C)c1OCC(C)N (stereo not given) [MEXILETINE]", 14.2),
    ("OCCN1CCN(CCCN2c3ccccc3Sc3ccc(C(F)(F)F)cc32)CC1 [FLUPHENAZINE]", 13.9),
    ("O=[N+]([O-])c1ccc(O)c([N+](=O)[O-])c1 [2,4-DINITROPHENOL]", 16.5),
]

Q: Please give the measured LIVER for this compound: O=C1CN(/N=C/c2ccc([N+](=O)[O-])o2)C(=O)N1 [NITROFURANTOIN]
Result: 14.5

====

# Species on record: Rattus norvegicus
# Assay explanation: Open TG-GATES - Regimen: Daily Repeat
# Assay type: toxicity, organism-based, Sprague-Dawley
# Parameters: regimen Daily Repeat, gender Male, age 6 weeks
# Reported conditions: in vivo, po, 0 mg/kg, 72 h, tissue Blood, route gavage, dose level Control, time 3 day
Hi there, I'd appreciate the recorded WBC for every entry that follows.
Numbers only, in x10_2/uL.

Here are 2 molecules together with their reported answers.
# Molecule, Endpoint result
measured = [
    ("O=[N+]([O-])c1ccc(O)c([N+](=O)[O-])c1", 119.4),
    ("OCCN1CCN(CCCN2c3ccccc3Sc3ccc(C(F)(F)F)cc32)CC1", 99.4),
]

Consider the following items and state reported WBC for each.
1. C[C@H]1C(=O)O[C@@H]2CCN3CC=C(COC(=O)[C@](C)(O)[C@]1(C)O)[C@H]23
2. CCOC(=O)C(C)(C)Oc1ccc(Cl)cc1 [CLOFIBRATE]

Result:
91.2
98

Consider the following items and state reported WBC for each.
1. Cn1cc[nH]c1=S
2. Cc1cccc(C)c1OCC(C)N (centres undefined)
3. O=C1CN(/N=C/c2ccc([N+](=O)[O-])o2)C(=O)N1
4. C=C(C)[C@H]1Cc2c(ccc3c2O[C@@H]2COc4cc(OC)c(OC)cc4[C@@H]2C3=O)O1
5. C[C@H]1O[C@H](O[C@H]2[C@H](O)[C@@H](O)[C@@H](O[C@H]3[C@H](O)[C@@H](O)C(O)O[C@@H]3CO)O[C@@H]2CO)[C@H](O)[C@@H](O)[C@@H]1N[C@H]1C=C(CO)[C@@H](O)[C@H](O)[C@H]1O (some centres undefined)

Result:
1. 107.5
2. 120.4
3. 116.2
4. 92.8
5. 102.7

====

# Species: Rattus norvegicus
# Assay explanation: Open TG-GATES - Regimen: Daily Repeat
# Format: toxicity, organism-based, Sprague-Dawley
# Parameters: regimen Daily Repeat, gender Male, age 6 weeks
# Reported conditions: in vivo, po, 0 mg/kg, […], tissue Kidney, route gavage, dose level Control, time 7 day
Reported metric: KIDNEY_R (g)
Answers are plain numbers, in g.

# Compound, KIDNEY_R / g
measured = [
    ("C[C@H]1O[C@H](O[C@H]2[C@H](O)[C@@H](O)[C@@H](O[C@H]3[C@H](O)[C@@H](O)C(O)O[C@@H]3CO)O[C@@H]2CO)[C@H](O)[C@@H](O)[C@@H]1N[C@H]1C=C(CO)[C@@H](O)[C@H](O)[C@H]1O (stereo partly specified) [ACARBOSE]", 1.1),
    ("CCOC(=O)C(C)(C)Oc1ccc(Cl)cc1 [CLOFIBRATE]", 1.1),
    ("Cc1cccc(C)c1OCC(C)N (stereo unspecified) [MEXILETINE]", 1.2),
]

Consider the following items and state reported KIDNEY_R for each.
1. C[C@H]1C(=O)O[C@@H]2CCN3CC=C(COC(=O)[C@](C)(O)[C@]1(C)O)[C@H]23 [MONOCROTALINE]
2. O=C1CN(/N=C/c2ccc([N+](=O)[O-])o2)C(=O)N1 [NITROFURANTOIN]
3. OCCN1CCN(CCCN2c3ccccc3Sc3ccc(C(F)(F)F)cc32)CC1 [FLUPHENAZINE]

Result:
1.1
1.2
1.2

====

# Organism: Rattus norvegicus
# Assay explanation: Open TG-GATES - Regimen: Single
# Type: toxicity, organism-based, Sprague-Dawley
# Set-up: regimen Single, gender Male, age 6 weeks
# Reported conditions: in vivo, po, 0 mg/kg, 24 h, tissue Blood, route gavage, dose level Control
We label by threshold. Values of Ret strictly beneath 8% are Satisfied. Values of 8% and up are Not satisfied.

Q: Please determine if Cc1cccc(C)c1OCC(C)N (centres undefined) is below 8% in terms of Ret.
Result: Satisfied

Q: Lookup `C[C@H]1C(=O)O[C@@H]2CCN3CC=C(COC(=O)[C@](C)(O)[C@]1(C)O)[C@H]23`
Result: Not satisfied

Q: Lookup CCOC(=O)C(C)(C)Oc1ccc(Cl)cc1 [CLOFIBRATE]
Result: Satisfied

Q: Lookup `C=C(C)[C@H]1Cc2c(ccc3c2O[C@@H]2COc4cc(OC)c(OC)cc4[C@@H]2C3=O)O1`
Result: Not satisfied

====

# Species: Rattus norvegicus
# Assay explanation: Open TG-GATES - Regimen: Daily Repeat
# Assay type: toxicity, organism-based, Sprague-Dawley
# Design: regimen Daily Repeat, gender Male, age 6 weeks
# Reported conditions: in vivo, po, 0 mg/kg, […], tissue Blood, route gavage, dose level Control, time 28 day
Reported metric: Ret (%)
Give bare numbers, in %.

Consider the following items and state reported Ret for each.
1. C[C@H]1C(=O)O[C@@H]2CCN3CC=C(COC(=O)[C@](C)(O)[C@]1(C)O)[C@H]23 [MONOCROTALINE]
2. C=C(C)[C@H]1Cc2c(ccc3c2O[C@@H]2COc4cc(OC)c(OC)cc4[C@@H]2C3=O)O1 [ROTENONE]
3. CCOC(=O)C(C)(C)Oc1ccc(Cl)cc1 [CLOFIBRATE]
4. O=[N+]([O-])c1ccc(O)c([N+](=O)[O-])c1 [2,4-DINITROPHENOL]
5. OCCN1CCN(CCCN2c3ccccc3Sc3ccc(C(F)(F)F)cc32)CC1 [FLUPHENAZINE]

Result:
2.6
2
2.1
2.8
2.7

====

# Species on record: Rattus norvegicus
# Assay explanation: Open TG-GATES - Regimen: Daily Repeat
# Type: toxicity, organism-based, Sprague-Dawley
# Set-up: regimen Daily Repeat, gender Male, age 6 weeks
# Reported conditions: in vivo, po, 0 mg/kg, […], tissue Plasma, route gavage, dose level Control, time 7 day
Reported metric: DBIL (mg/dL)
Numbers only, in mg/dL.

# Compound, Reported metric, Endpoint result
data = [
    ("O=[N+]([O-])c1ccc(O)c([N+](=O)[O-])c1", "DBIL", 0.014),
    ("Cn1cc[nH]c1=S", "DBIL", 0),
    ("C[C@H]1C(=O)O[C@@H]2CCN3CC=C(COC(=O)[C@](C)(O)[C@]1(C)O)[C@H]23", "DBIL", 0),
]

Kindly review the next compound as well.
Q: Please give the measured DBIL for this compound: C[C@H]1O[C@H](O[C@H]2[C@H](O)[C@@H](O)[C@@H](O[C@H]3[C@H](O)[C@@H](O)C(O)O[C@@H]3CO)O[C@@H]2CO)[C@H](O)[C@@H](O)[C@@H]1N[C@H]1C=C(CO)[C@@H](O)[C@H](O)[C@H]1O (some centres undefined)
Result: 0.004
